pKi: −log10 of the molar value.
The listing below reports pKi for compounds tested on Sodium- and chloride-dependent GABA transporter 1 (Mus musculus, UniProt P31648).
PARAMETER: pKi

Recorded pKi, per entry:
> print(dat)
                                   compound  experimental.result
1  O=C(O)C1CCCN(CC#CCC(c2ccccc2)(c2ccccc2)c2ccccc2)C1 (racemic)                 4.84
2  COc1ccc(C(C#CCN2CCCC(C(=O)O)C2)(c2ccc(OC)cc2)c2ccsc2)cc1 (racemic)                 5.28
3  COc1ccc(C(CC#CCN2CCCC(C(=O)O)C2)(c2ccc(OC)cc2)c2ccc(OC)cc2)cc1 (racemic)                 4.43
4  COc1ccc(C(/C=C/CN2CCCC(C(=O)O)C2)(c2ccc(OC)cc2)c2ccc(OC)cc2)cc1 (stereo not drawn)                 4.83

A. O=C(O)C1CCCN(CCC#CC(c2ccccc2)(c2ccccc2)c2ccccc2)C1 (racemic)
B. COc1ccc(C(C#CCN2CCCC(C(=O)O)C2)(c2ccc(OC)cc2)c2ccc3c(c2)OCO3)cc1 (racemic)
C. COc1ccc(C(OCCN2CCCC(C(=O)O)C2)(c2ccc(OC)cc2C)c2ccc(OC)cc2C)cc1 (stereo not drawn)
D. COc1ccc(C(C#CCCN2CCCC(C(=O)O)C2)(c2ccc(OC)cc2)c2ccc(OC)cc2)cc1 (racemic)
// query Reorder the items by pKi, least to greatest. Form field (ranking): labels in requested order.
// result C, B, D, A
(C: 4.42, B: 5.31, D: 5.56, A: 7.04)

###

STUDY_SYSTEM: GABA transporter 4 (Mus musculus)
TEST_DESCRIPTION: Inhibition of mouse GAT4 expressed in HEK293 cells assessed as decrease in [3H]GABA uptake at 100 uM preincubated for 25 mins followed by [3H]GABA addition measured after 4 mins by liquid scintillation counting analysis relative to control
Assay type: cell-based
Design: scale not given: the % may be the effect or the level left
PARAMETER: Activity (%)

> print(dat)
                                   molecule  reading.unit  experimental.result
1  COc1ccc(C(O)(C#CCN2CCCC(C(=O)O)C2)c2ccc(OC)cc2)cc1 (racemic)             %                   69
2  COc1ccc(C(C#CCN2CCCC(C(=O)O)C2)(c2ccc(OC)cc2)c2nccs2)cc1 (racemic)             %                   79
3  O=C(O)C1CCCN(CCC#CC(c2ccccc2)(c2ccccc2)c2ccccc2)C1 (racemic)             %                   64

P. COc1ccc(C(C#CCN2CCCC(C(=O)O)C2)(c2ccc(OC)cc2)c2nccn2C)cc1 (racemic)
Q. C=C=C(CN1CCCC(C(=O)O)C1)C(c1ccccc1)(c1ccccc1)c1ccccc1 (racemic)
// query // which entry has the larger Activity value, P or Q ? Refer to your chosen item by its label in the answer.
// result P

###

Test system: GABA transporter mGAT3 (Slc6a13) (Mus musculus)
TEST_DESCRIPTION: Inhibition of mouse GAT3 expressed in HEK293 cells assessed as decrease in [3H]GABA uptake at 100 uM preincubated for 25 mins followed by [3H]GABA addition measured after 4 mins by liquid scintillation counting analysis relative to control
Set-up: scale not given: the % may be the effect or the level left
PARAMETER: Activity (%)

Recorded Activity, per entry:
> print(dat)
                                   compound                              study.system  experimental.result
1  COc1ccc(C(O)(C#CCN2CCCC(C(=O)O)C2)c2ccc(OC)cc2)cc1 (racemic)  GABA transporter mGAT3 (Slc6a13) (Mus musculus)                   74
2  O=C(O)C1CCCN(CCC#CC(c2ccccc2)(c2ccccc2)c2ccccc2)C1 (racemic)  GABA transporter mGAT3 (Slc6a13) (Mus musculus)                   61
3  C=C=C(CN1CCCC(C(=O)O)C1)C(c1ccccc1)(c1ccccc1)c1ccccc1 (racemic)  GABA transporter mGAT3 (Slc6a13) (Mus musculus)                   80

I. COc1ccc(C(C#CCN2CCCC(C(=O)O)C2)(c2ccc(OC)cc2)c2nccs2)cc1 (racemic)
II. O=C(O)C1CCCN(CC#CCC(c2ccccc2)(c2ccccc2)c2ccccc2)C1 (racemic)
// query Field: lower recorded Activity (choose I or II ) Refer to your chosen item by its label in the answer.
// result II

###

Tested on: betaine/GABA transporter BGT1 (mGAT2, Slc6a12) (Mus musculus)
TEST_DESCRIPTION: Inhibition of mouse GAT2 expressed in HEK293 cells assessed as decrease in [3H]GABA uptake at 100 uM preincubated for 25 mins followed by [3H]GABA addition measured after 10 mins by liquid scintillation counting analysis relative to control
Design: scale not given: the % may be the effect or the level left
PARAMETER: Activity (%)

> print(dat)
                                   molecule  experimental.result
1  O=C(O)C1CCCN(CCC#CC(c2ccccc2)(c2ccccc2)c2ccccc2)C1 (racemic)                   66
2  O=C(O)C1CCCN(CC#CCC(c2ccccc2)(c2ccccc2)c2ccccc2)C1 (racemic)                   66
3  COc1ccc(C(C#CCN2CCCC(C(=O)O)C2)(Cc2ccccc2)c2ccc(OC)cc2)cc1 (racemic)                   67
4  C=C=C(CN1CCCC(C(=O)O)C1)C(c1ccccc1)(c1ccccc1)c1ccccc1 (racemic)                   87

###

STUDY_SYSTEM: Sodium- and chloride-dependent GABA transporter 1 (Mus musculus) (UniProt P31648)
TEST_DESCRIPTION: Inhibition of mouse GAT1 expressed in HEK293 cells assessed as decrease in [3H]GABA uptake at 100 uM preincubated for 25 mins followed by [3H]GABA addition measured after 4 mins by liquid scintillation counting analysis relative to control
Assay type: cell-based
Set-up: scale not given: the % may be the effect or the level left
PARAMETER: Activity (%)

> print(dat)
                                   molecule                              study.system  experimental.result
1  COc1ccc(C(C#CCN2CCCC(C(=O)O)C2)(c2ccc(OC)cc2)c2nccn2C)cc1 (racemic)  Sodium- and chloride-dependent GABA transporter 1 (Mus musculus) (UniProt P31648)                   80
2  C=C=C(CN1CCCC(C(=O)O)C1)C(c1ccc(OC)cc1)(c1ccc(OC)cc1)c1ccc(OC)cc1 (racemic)  Sodium- and chloride-dependent GABA transporter 1 (Mus musculus) (UniProt P31648)                   69
3  COc1ccc(C(C#CCN2CCCC(C(=O)O)C2)(c2ccc(OC)cc2)c2nccs2)cc1 (racemic)  Sodium- and chloride-dependent GABA transporter 1 (Mus musculus) (UniProt P31648)                   68
4  COc1ccc(C(O)(C#CCN2CCCC(C(=O)O)C2)c2ccc(OC)cc2)cc1 (racemic)  Sodium- and chloride-dependent GABA transporter 1 (Mus musculus) (UniProt P31648)                   66
5  C=C=C(CN1CCCC(C(=O)O)C1)C(c1ccccc1)(c1ccccc1)c1ccccc1 (racemic)  Sodium- and chloride-dependent GABA transporter 1 (Mus musculus) (UniProt P31648)                   62

###

STUDY_SYSTEM: Sodium- and chloride-dependent GABA transporter 1 (Mus musculus, UniProt P31648)
TEST_DESCRIPTION: Inhibition of mouse GAT1 expressed in HEK293 cells assessed as decrease in [3H]GABA uptake preincubated for 25 mins followed by [3H]GABA addition measured after 4 mins by liquid scintillation counting analysis
pIC50: −log10 of the molar value.
PARAMETER: pIC50

Recorded pIC50, per entry:
> print(dat)
                                   compound  experimental.result
1  COc1ccc(C(C#CCN2CCCC(C(=O)O)C2)(c2ccc(OC)cc2)c2ccsc2)cc1 (racemic)                 4.60
2  COc1ccc(C(C#CCN2CCCC(C(=O)O)C2)(c2ccc(OC)cc2)c2ccc3sccc3c2)cc1 (racemic)                 4.96
3  COc1ccc(C(OCCN2CCC[C@H](C(=O)O)C2)(c2ccc(OC)cc2)c2ccc(OC)cc2C)cc1                 4.19
4  COc1ccc(C(CC#CCN2CCCC(C(=O)O)C2)(c2ccc(OC)cc2)c2ccc(OC)cc2)cc1 (racemic)                 4.28
5  O=C(O)C1CCCN(CC#CCC(c2ccccc2)(c2ccccc2)c2ccccc2)C1 (racemic)                 4.45

A. COc1ccc(C(C#CCN2CCCC(C(=O)O)C2)(Cc2ccccc2)c2ccc(OC)cc2)cc1 (racemic)
B. O=C(O)C1CCCN(CCC#CC(c2ccccc2)(c2ccccc2)c2ccccc2)C1 (racemic)
C. COc1ccc(CC(C#CCN2CCCC(C(=O)O)C2)(c2ccc(OC)cc2)c2ccc(OC)cc2)cc1 (racemic)
// query Reorder the items by pIC50, least to greatest. Form field (ranking): labels in requested order.
// result C, A, B
(C: 4.88, A: 5.08, B: 6.37)
